# Tested on: VDR homodimer (NR concentration 270 nM)
# measurementDescription: PBM binding z-score (relative to random genomic background probes); higher = stronger binding; sequences stand for … in GC…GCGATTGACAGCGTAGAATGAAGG
Threshold check on PBM binding z-score: at or above 0.3 gives Fulfilled, strictly below gives Not fulfilled.

Use these answered entries as a reference point.
CCTACTGGGCCATAGGTCATTGATTCCAATGCTC
Not fulfilled
CGTCCATGGTCAGCAGGTCAGTGAAAGCGACGTG
Not fulfilled

Item CCGACTTGGGCAAGGTTACCATAACGCACAGCCA with PBM binding z-score of 0.3 or above?
Not fulfilled

Item CCTACTGGGCCAAAAAGGTCGTTGATGCCGATAA with PBM binding z-score of 0.3 or above?
Fulfilled

Item TCATATAGGTAAAAGGCGAAAGTCGGTGTGGTAA with PBM binding z-score of 0.3 or above?
Not fulfilled

----------
# PBM binding z-score per record follows
# Test system: PPARg DBDmut:RXRa IVT, anti-PPARg (DBD mutation: PPARg1 K132A/R137A, NR concentration 270 nM, RXRa partner concentration 90 nM)
# measurementDescription: PBM binding z-score (relative to random genomic background probes); higher = stronger binding; sequences stand for … in GC…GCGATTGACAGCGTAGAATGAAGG

Example entries and their recorded answers appear below.
ATCGAAAAGTCGTGAGGTGAGTATACAGAAAGGC
0.929
ATAGAAAGGTCGTGAGGTGAGTATACAGAAAGGC
1.91
ACTATTAGTTGACTTAGGGCAACCTATACGACGC
1.42
CCTAGCAGGCCAATCTGGGTCTCTCAAGGCTTGA
-0.916
ACTAGCAGGCCAAGTTTGGGTCACTCGAACAAAG
-0.745

If you can, please state the reported PBM binding z-score value of ATATTTAGGTTAAGGGTCATTCAGGTTGGTTCGC .
5.34

----------
# Test system: LXRb homodimer (NR concentration 270 nM)
# measurementDescription: PBM binding z-score (relative to random genomic background probes); higher = stronger binding; sequences stand for … in GC…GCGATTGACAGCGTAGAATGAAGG
observationType: PBM binding z-score
// response body must contain only the number

CCTGCTAGGTCAATGGTCACCTAAAGCAGCTCGC
-0.189
CTTATTAGTTGACCATAAGGGCAACCGAAGCTCG
0.837
GATACAGGGTCAGCTAGAGGCCAGACTATGGAAA
0.0441
AATACAGGGTCACTAAGCCAGAGTAGGTACGAAT
0.99
CAAATTAGGTCACCGGAAGGTCAAAGTCCGCATG
1.82
AGTCAAAATTCAGGACGAGGTAACGTAAAGCACG
-0.336

If you can, please state the reported PBM binding z-score value of AGAATGAGGTTATACGTAGATCAGAGAAGAAAGT .
0.2

If you can, please state the reported PBM binding z-score value of TAGGCTAGGTCAGATCGGGCCAGTATACGCTATA .
-0.542

If you can, please state the reported PBM binding z-score value of GCATATAGGTAATACAAGGCGAAAGTCCGATTGT .
-0.482

If you can, please state the reported PBM binding z-score value of CCGACTCGGGCATAAGGTTACCATAAGCCAGCCC .
-1.1

If you can, please state the reported PBM binding z-score value of ACTAGTTGGTCAGCTGAGGCCACACACAATTCGG .
-0.143

If you can, please state the reported PBM binding z-score value of TTACCAAGGTGAAGCTCGTTGATCCCTCTGTAGA .
-1.24

----------
# System: LXRb homodimer (NR concentration 270 nM)
# measurementDescription: PBM binding z-score (relative to random genomic background probes); higher = stronger binding; sequences stand for … in GC…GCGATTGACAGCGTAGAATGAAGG
Threshold check on PBM binding z-score: at or above 0.04 gives satisfied, strictly below gives not satisfied.

TGACCAAGGTGAAGGTCGTTGATCCCTCTGTAGA
not satisfied
TCTAGGTGGTCAAAGGTCACACACTCGAAATGCG
satisfied

Moving on to the next sequence.
Item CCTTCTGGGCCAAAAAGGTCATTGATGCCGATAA with PBM binding z-score of 0.04 or above?
satisfied

----------
# Test system: PPARg:RXRa 270nM:90nM, anti-RXR (NR concentration 270 nM, RXRa partner concentration 90 nM)
# measurementDescription: PBM binding z-score (relative to random genomic background probes); higher = stronger binding; sequences stand for … in GC…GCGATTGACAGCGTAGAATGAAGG
Threshold check on PBM binding z-score: at or above 2 gives rule met, strictly below gives rule not met.

TCTTGTAGTTCAATAGAGGTTAAGAAAGTGCGCT
rule not met
CCGACTGGGGCGTAAGGTTACCATAAGCCAGCCC
rule met

Item CCCACTGGGGCAAGGTTACCATAACGCACAGCCA with PBM binding z-score of 2 or above?
rule met

Item CGTGAAAGTTCAACTAAGGTAACGTAAAGCACGC with PBM binding z-score of 2 or above?
rule met

Item CGGAGTAGGTTATGGGGCATTCAGGCAACGGTGA with PBM binding z-score of 2 or above?
rule met

Item TTACCCAGGTGAAGGTCGTTGATCCCTCTGTAGA with PBM binding z-score of 2 or above?
rule not met

Item ATCTCTAGGTAAGACTCAGTTCAGTGCAGAACGC with PBM binding z-score of 2 or above?
rule not met

Item TCTTGTAGATCAGCAGTTTAAGAAAGCTGGCCAA with PBM binding z-score of 2 or above?
rule not met

Item CCTGCTGGGTCATGGTCAGCTAATCTACAGTATG with PBM binding z-score of 2 or above?
rule met

----------
# System: LXRa homodimer (NR concentration 270 nM)
# measurementDescription: PBM binding z-score (relative to random genomic background probes); higher = stronger binding; sequences stand for … in GC…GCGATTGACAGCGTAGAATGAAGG
# PBM binding z-score per record follows
// response body must contain only the number

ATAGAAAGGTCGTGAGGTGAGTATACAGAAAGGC
0.49
TAGCCTAGGTCATGCGGACCAGTATAGTGTCGGC
0.318

If you can, please state the reported PBM binding z-score value of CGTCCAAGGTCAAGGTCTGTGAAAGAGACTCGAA .
0.422

If you can, please state the reported PBM binding z-score value of CGTCCAAGGTCAATGCTAGGTCAGTGATAGCATT .
2.71

If you can, please state the reported PBM binding z-score value of TCTTGTAGATCATAGGTTAAGAAAGCCGAAGCCT .
-0.0576

If you can, please state the reported PBM binding z-score value of ACTAGTTGGTCAGCTGAGTTCACACACAATTCGG .
1.72

----------
# System: PPARg DBDmut IVT, anti-PPARg (DBD mutation: PPARg1 K132A/R137A, NR concentration 270 nM)
# measurementDescription: PBM binding z-score (relative to random genomic background probes); higher = stronger binding; sequences stand for … in GC…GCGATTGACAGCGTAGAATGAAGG
# PBM binding z-score per record follows
// response body must contain only the number

Example entries and their recorded answers appear below.
CAAACTAGGTCACCGGTAGGTCAAAGTCCGCATG
4.14
TCATCTAGGTAAATGCTAGGTGAAAGTCCGATCT
0.995

If you can, please state the reported PBM binding z-score value of CAGCCTAGGTTAGGGCCAGTATAGGAGGAACGTT .
-1.1

If you can, please state the reported PBM binding z-score value of CGAACTAGGTCAAGGACAGTGAATCTCCGCACGC .
1.98

If you can, please state the reported PBM binding z-score value of ACTAGTTGGTCAGCTGCGGTCACACACAATTCGG .
0.572

If you can, please state the reported PBM binding z-score value of TCTGGTAGGTCAACGATGGTCAGCTAATCTGCTA .
0.722

----------
# Tested on: RXRa homodimer (NR concentration 180 nM)
# measurementDescription: PBM binding z-score (relative to random genomic background probes); higher = stronger binding; sequences stand for … in GC…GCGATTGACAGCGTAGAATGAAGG
# PBM binding z-score per record follows
// response body must contain only the number

Example entries and their recorded answers appear below.
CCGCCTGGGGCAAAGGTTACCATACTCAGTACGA
3.55
TAGCCTACGTCATTGGGCCAGTATAGTACGCATC
-0.232
ACTATTATTTGAGACGAGGGCAACCGATAGGTTG
0.916
CTCGAAAGGTCGGTTGAGGTGAGTATACGGATAA
1.95

Let's switch to this sequence now.
If you can, please state the reported PBM binding z-score value of TCTAGTTGGTCAAAGGTAACACACTCGAAATGCG .
2.42

----------
# Test system: RARg:RXRa (NR concentration 270 nM, RXRa partner concentration 90 nM)
# measurementDescription: PBM binding z-score (relative to random genomic background probes); higher = stronger binding; sequences stand for … in GC…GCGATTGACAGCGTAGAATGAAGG
Note to self: class = bucket of PBM binding z-score, per range 1 (below 0.7), range 2 (0.7 to below 4), range 3 (4 or more)

Use these answered entries as a reference point.
TCGAGTAGGTTAGTCGGGGCATTCTGCCAACATA
range 1
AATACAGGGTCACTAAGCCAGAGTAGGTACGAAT
range 3
GCTAGTTGGTCAGTAAAAGGCCACACACCGGTCG
range 2
ATCGTAAGGTCGAAGGTGAGTATACCCACCCGAA
range 2

The entry to classify is TCATATAGGTAATACAGATGAAAGTCGGCATCTA ; which class holds it?
range 1

The entry to classify is CAAACTAGGTCACAGAGATCAAAGTCCGTGCGTA ; which class holds it?
range 3

The entry to classify is TCTACTAGTTGATTAGGGCAACCGAAACAGCGGA ; which class holds it?
range 1

The entry to classify is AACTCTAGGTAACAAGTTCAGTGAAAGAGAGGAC ; which class holds it?
range 2

The entry to classify is ACTAGCAGGCCAAGTTTGGGACACTCAAACAAAG ; which class holds it?
range 1

The entry to classify is TCGAGTAGGTTCGTCGGGGCATTCAGCCAACATA ; which class holds it?
range 1

The entry to classify is TAGCCTGGGTCAGATCGGGCCAGTATACGCTATA ; which class holds it?
range 2

The entry to classify is CCTACTGGGCCAGAAAGGTCATTGATGCCGATAA ; which class holds it?
range 3
